- PROTOCOL_DESCRIPTION: Dog PK study #4 (Compound A PO daily 14 days, 1/3/10 mg/kg; toxicokinetics, platelet counts)
- Format: in vivo, beagle dogs
- MEASUREMENT_SETUP: beagle, dog, plasma, oral; after daily administration for 14 days, 1 mg/kg, Male, 2 h
RESULT_TYPE: concentration at 2 h (ng/mL)
The figure you give is taken to be in ng/mL; do not add the unit.

Kindly indicate its recorded concentration at 2 h. Item: Cn1cc(-c2ccccc2)c(-c2cn(C)c(=O)c3[nH]c(-c4cnn(C(F)(F)F)c4)cc23)cc1=O [Compound A]
60.8

* * *

- PROTOCOL_DESCRIPTION: Rat PK study #1 (Compound A PO, methylcellulose vs propylene glycol formulation)
- Type: in vivo, Lewis rats
- MEASUREMENT_SETUP: male, Lewis, rat, plasma, po, 10 mg/kg, Lewis rats, PO 10 mg/kg, propylene glycol/Vitamin E TPGS/water formulation, 2 h, individual animals
RESULT_TYPE: concentration at 2 h (ng/mL)
The figure you give is taken to be in ng/mL; do not add the unit.

Kindly indicate its recorded concentration at 2 h. Item: Cn1cc(-c2ccccc2)c(-c2cn(C)c(=O)c3[nH]c(-c4cnn(C(F)(F)F)c4)cc23)cc1=O
390

* * *

- PROTOCOL_DESCRIPTION: Dog PK study #3 (Compound A PO once daily 5 days, 5/10/20 mg/kg; PK, body weight, hematology)
- Type: in vivo, beagle dogs
- MEASUREMENT_SETUP: male, beagle, dog, plasma, po, 20 mg/kg, Day 5, 20 mg/kg dose PO; individual animals
RESULT_TYPE: Tmax (h)
The figure you give is taken to be in h; do not add the unit.

Kindly indicate its recorded Tmax. Item: Cn1cc(-c2ccccc2)c(-c2cn(C)c(=O)c3[nH]c(-c4cnn(C(F)(F)F)c4)cc23)cc1=O [Compound A]
2

* * *

- PROTOCOL_DESCRIPTION: Dog PK study #1 (Compound A IV and PO, propylene glycol formulation)
- Format: in vivo, beagle dogs
- MEASUREMENT_SETUP: beagle, dog, plasma, iv, 1 mg/kg, IV 1 mg/kg; individual animals; read-out: Vss—obs
RESULT_TYPE: Vd (L/kg)
The figure you give is taken to be in L/kg; do not add the unit.

Kindly indicate its recorded Vd. Item: Cn1cc(-c2ccccc2)c(-c2cn(C)c(=O)c3[nH]c(-c4cnn(C(F)(F)F)c4)cc23)cc1=O
1.06

* * *

- PROTOCOL_DESCRIPTION: CIA study: pharmacokinetics / plasma concentration after oral administration
- Format: in vivo, Lewis rats
- MEASUREMENT_SETUP: Lewis, rat, plasma, po, 3 mg/kg, oral 3 mg/kg, day 0, time 1; read-out: Mean Concentration (average plasma concentration)
RESULT_TYPE: concentration at 1 h
Entry format: amount then unit.

Kindly indicate its recorded concentration at 1 h. Item: Cn1cc(-c2ccccc2)c(-c2cn(C)c(=O)c3[nH]c(-c4cnn(C(F)(F)F)c4)cc23)cc1=O
51.1 ng/mL

* * *

- PROTOCOL_DESCRIPTION: Dog PK study #1 (Compound A IV and PO, propylene glycol formulation)
- Assay type: in vivo, beagle dogs
- MEASUREMENT_SETUP: beagle, dog, plasma, po, 5 mg/kg, oral 5 mg/kg, 0.25 h; mean; read-out: Average plasma concentration
RESULT_TYPE: concentration at 0.25 h (ng/mL)
The figure you give is taken to be in ng/mL; do not add the unit.

Kindly indicate its recorded concentration at 0.25 h. Item: Cn1cc(-c2ccccc2)c(-c2cn(C)c(=O)c3[nH]c(-c4cnn(C(F)(F)F)c4)cc23)cc1=O [Compound A]
26.7

* * *

- PROTOCOL_DESCRIPTION: CIA study: pharmacokinetics / plasma concentration after oral administration
- Format: in vivo, Lewis rats
- MEASUREMENT_SETUP: Lewis, rat, plasma, po, 3 mg/kg, oral 3 mg/kg, day 0, 6 h, individual test subjects; read-out: Plasma concentration
RESULT_TYPE: concentration at 6 h (ng/mL)
The figure you give is taken to be in ng/mL; do not add the unit.

Kindly indicate its recorded concentration at 6 h. Item: Cn1cc(-c2ccccc2)c(-c2cn(C)c(=O)c3[nH]c(-c4cnn(C(F)(F)F)c4)cc23)cc1=O
123

* * *

- PROTOCOL_DESCRIPTION: Dog PK study #3 (Compound A PO once daily 5 days, 5/10/20 mg/kg; PK, body weight, hematology)
- Format: in vivo, beagle dogs
- MEASUREMENT_SETUP: male, beagle, dog, plasma, po, 5 mg/kg, Day 1, 5 mg/kg dose PO; individual animals; read-out: T½ (converted)
- Protocol: For the third dog pharmacokinetic study, three solutions of different concentrations of Compound A were prepared in 5% DMSO/15% PEG-400/80% (10% VE-TPGS) as outlined in Table 2E. […] Body weight was recorded prior to dosing, and detailed clinical observations were made prior to dosing and throughout the study, as needed. […] The concentration of Compound A in the blood plasma was determined through LC-MS as previously described. […] The cell composition (hematology) of blood samples was analyzed at day 5. […]
RESULT_TYPE: half-life (h)
The figure you give is taken to be in h; do not add the unit.

Kindly indicate its recorded half-life. Item: Cn1cc(-c2ccccc2)c(-c2cn(C)c(=O)c3[nH]c(-c4cnn(C(F)(F)F)c4)cc23)cc1=O [Compound A]
5.63

* * *

The following compounds are shown together with reported pIC50 values.
- SYSTEM_NAME: BRD4 BD2 (Homo sapiens)
- Construct: HEK293 cells were transfected using NanoLuc-BRD4-BD1 or NanoLuc-BRD4-BD2 fusion vectors
- PROTOCOL_DESCRIPTION: NanoBRET bromodomain assay, NanoLuc-BRD4-BD2 in HEK293 cells
pIC50: −log10 of the molar value.

Solved cases below.
COMPOUND	pIC50
Cn1cc(-c2ccccc2)c(-c2cn(C)c(=O)c3[nH]c(-c4ccc(C5COC5)cc4)cc23)cc1=O	> 8.00
Cn1cc(-c2cccc3c2COC3)c(-c2cn(C)c(=O)c3[nH]c(-c4ccc(F)cc4F)cc23)cc1=O	> 8.00
CSCc1cccc(-c2cn(C)c(=O)cc2-c2cn(C)c(=O)c3[nH]c(-c4cnn(C(F)(F)F)c4)cc23)c1	> 8.00
Cc1cc(-c2cc3c(-c4cc(=O)n(C)cc4-c4ccccc4C)cn(C)c(=O)c3[nH]2)cc(C)n1.Cl [Example 27, hydrochloride]	7.30 to 8.00

Kindly indicate its recorded pIC50. Item: Cn1cc(-c2ccccc2)c(-c2cn(C)c(=O)c3[nH]c(-c4cccc(F)c4F)cc23)cc1=O
7.30 to 8.00

Kindly indicate its recorded pIC50. Item: Cn1cc(-c2ccccc2)c(-c2cn(C)c(=O)c3[nH]c(-c4c(F)cccc4F)cc23)cc1=O
6.70 to 7.30

Kindly indicate its recorded pIC50. Item: Cn1cc(-c2cccc(CS(C)(=O)=O)c2)c(-c2cn(C)c(=O)c3[nH]c(-c4cnn(C(F)(F)F)c4)cc23)cc1=O
6.70 to 7.30

* * *

- PROTOCOL_DESCRIPTION: Dog PK study #3 (Compound A PO once daily 5 days, 5/10/20 mg/kg; PK, body weight, hematology)
- Assay type: in vivo, beagle dogs
- MEASUREMENT_SETUP: male, beagle, dog, plasma, po, 10 mg/kg, Day 1, 10 mg/kg dose PO; mean; read-out: AUC0-inf
RESULT_TYPE: AUC(0-inf) (ng·h/mL)
The figure you give is taken to be in ng·h/mL; do not add the unit.

Kindly indicate its recorded AUC(0-inf). Item: Cn1cc(-c2ccccc2)c(-c2cn(C)c(=O)c3[nH]c(-c4cnn(C(F)(F)F)c4)cc23)cc1=O
18600

* * *

- PROTOCOL_DESCRIPTION: Dog PK study #1 (Compound A IV and PO, propylene glycol formulation)
- Assay type: in vivo, beagle dogs
- MEASUREMENT_SETUP: beagle, dog, plasma, po, 5 mg/kg, oral 5 mg/kg, 8 h; mean
- Method: The purpose of this study was to examine the pharmacokinetics of Compound A in beagle dogs. […] The concentration of Compound A in the blood plasma was determined through liquid chromatography-mass spectrometry (LC-MS). […]
RESULT_TYPE: concentration at 8 h (ng/mL)
The figure you give is taken to be in ng/mL; do not add the unit.

Kindly indicate its recorded concentration at 8 h. Item: Cn1cc(-c2ccccc2)c(-c2cn(C)c(=O)c3[nH]c(-c4cnn(C(F)(F)F)c4)cc23)cc1=O [Compound A]
123

* * *

- PROTOCOL_DESCRIPTION: Dog PK study #2 (Compound A IV, HPBCD formulation)
- Format: in vivo, beagle dogs
- MEASUREMENT_SETUP: beagle, dog, plasma, iv, 1 mg/kg, IV 1 mg/kg, HPBCD formulation; mean; read-out: C0
RESULT_TYPE: C0 (ng/mL)
The figure you give is taken to be in ng/mL; do not add the unit.

Kindly indicate its recorded C0. Item: Cn1cc(-c2ccccc2)c(-c2cn(C)c(=O)c3[nH]c(-c4cnn(C(F)(F)F)c4)cc23)cc1=O
455

Data credit: patent US20260217701A1
